pKi tested on UniProtKB P61169: recorded values
Sequence (P61169 whole entry): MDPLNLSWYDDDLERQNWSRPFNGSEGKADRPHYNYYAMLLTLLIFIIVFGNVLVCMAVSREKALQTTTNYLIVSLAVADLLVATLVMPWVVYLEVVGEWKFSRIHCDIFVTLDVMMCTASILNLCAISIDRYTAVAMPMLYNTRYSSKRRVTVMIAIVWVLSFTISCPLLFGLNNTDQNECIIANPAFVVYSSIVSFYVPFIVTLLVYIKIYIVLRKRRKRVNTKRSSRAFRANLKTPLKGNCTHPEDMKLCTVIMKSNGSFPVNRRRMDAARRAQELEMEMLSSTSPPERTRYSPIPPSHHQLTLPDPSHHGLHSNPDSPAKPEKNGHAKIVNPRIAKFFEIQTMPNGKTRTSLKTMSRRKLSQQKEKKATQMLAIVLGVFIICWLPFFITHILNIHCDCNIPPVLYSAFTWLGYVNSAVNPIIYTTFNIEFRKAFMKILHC
pKi: −log10 of the molar value.

>>> df
                                   compound  observed_measurement
0  c1ccc2c(c1)OCC(C1=NCCN1)O2 (configuration not stated)                < 5.00

In the following, a different compound is considered.
## Input Complete the entry with pKi for Nc1cc(Cl)c(N=C2NCCN2)c(Cl)c1 [p-AMINOCLONIDINE]
## Output < 5.00

The origin of these recorded values is BindingDB's records for PubMed 2138666.
